Source: the RNAGym collection of RNA variant scans (doi:10.1126/science.aae0568)

Recorded yeast fitness, one value per entry.
B1: tRNA (parent)
chain: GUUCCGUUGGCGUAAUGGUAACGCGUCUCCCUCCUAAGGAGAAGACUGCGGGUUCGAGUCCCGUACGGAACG

Variants of: B1
assay text: yeast fitness relative to wild type (ratio to wild type); higher = fitter; tRNA-Arg(CCU), competitive growth, 37 C, YPD
Fewer inactive variants are shown than the library holds.
measurement label: yeast fitness

variant name	measurement label	prefix operator	numeric value
C5A C31U A37C	yeast fitness	=	0.561
C4G G6A U47G	yeast fitness	≤	0.5
U3A G6C C31A U47G C62A	yeast fitness	≤	0.5
C24U C34A G48C	yeast fitness	=	0.693
G56A A65G C66U G68A	yeast fitness	=	0.609
C24G G25C C30G U32C G67C	yeast fitness	≤	0.5
G6A A20U G25A	yeast fitness	=	0.574
A20U G39C A40G C49U C55G	yeast fitness	≤	0.5
A21U C31A G39C C62G	yeast fitness	≤	0.5
U3A G17C A20C U28A C46A C61A	yeast fitness	≤	0.5
G6C C29A C55A A65G	yeast fitness	≤	0.5
C4U C24A	yeast fitness	=	0.574
A15C C34G A37U C46G	yeast fitness	≤	0.5
G23C G58A	yeast fitness	=	0.6
U16A C31A C33G G38A C66U	yeast fitness	≤	0.5
G12C G41C C66U	yeast fitness	=	0.551
U13A C27G U59C	yeast fitness	≤	0.5
U13C C31U G50C	yeast fitness	≤	0.5
C4G C5U A40G	yeast fitness	=	0.526
G17C C24A A36U G41C	yeast fitness	≤	0.5
A21G C27U C61G A65U	yeast fitness	≤	0.5
U3C C11A C27G C33A A43C C46A	yeast fitness	=	0.687
U2A A20C C62U C66G	yeast fitness	≤	0.5
U2C G48A C60U	yeast fitness	≤	0.5
U16G G48A	yeast fitness	=	0.903
U7A C34A G56C A65G	yeast fitness	≤	0.5
C31A G38A C46U A69U	yeast fitness	≤	0.5
C24U A43C A70U	yeast fitness	=	0.59
C4G U8C C24G U47C	yeast fitness	≤	0.5
G18A A42C G48A C60A	yeast fitness	≤	0.5
U8G A15G C24U C29G A45C C60A	yeast fitness	=	0.551
G25A G41A G56A	yeast fitness	=	0.871
C5A A15U C31G G39A C49U G58A G67A	yeast fitness	≤	0.5
U2C U16C C27G C55U U59G	yeast fitness	≤	0.5
G50A U59A G67C	yeast fitness	≤	0.5
A40U G56A G58C	yeast fitness	=	0.786
G10A G39C A70G	yeast fitness	=	0.589
C30A A36U C60U A69C	yeast fitness	=	0.6
A14C G25C G48A	yeast fitness	=	0.608
U13A C24A C30A	yeast fitness	=	0.605
U3C G6A U16C G17A	yeast fitness	≤	0.5
C11U C29U U35C	yeast fitness	≤	0.5
U8C C61A A65U	yeast fitness	≤	0.5
G6A A15U U59A G68C	yeast fitness	≤	0.5
G6C U19G A43U G58C C66A	yeast fitness	≤	0.5
A42U U59C U64A	yeast fitness	≤	0.5
G10C C24G U28C A37G U47A	yeast fitness	≤	0.5
C11U C31A A42G C55A	yeast fitness	≤	0.5
U3C C11A A15C C24A C27A G41C	yeast fitness	≤	0.5
C29G G58C	yeast fitness	=	0.642
C22A G51C G68C	yeast fitness	≤	0.5
C4G G44C C49G G56A C61G A65U A69G	yeast fitness	=	0.641
U47C C60U C62A	yeast fitness	≤	0.5
A15U U16G C55A A57C U59C A65G	yeast fitness	≤	0.5
C4G U13G	yeast fitness	=	0.882
U7C C34U C55A A65G	yeast fitness	≤	0.5
C4U A20U C29U	yeast fitness	≤	0.5
A14G C46U G50C C55U A57U C62G A70U	yeast fitness	=	0.54
U2A C31U	yeast fitness	=	0.921
U19G C27G A65C C66G	yeast fitness	=	0.907
C5G C29G G41C A57U	yeast fitness	≤	0.5
G9A G10C G17A G25A	yeast fitness	≤	0.5
C11G A45C	yeast fitness	=	0.59
A36C G48A	yeast fitness	=	0.594
C22A C29A A43U	yeast fitness	≤	0.5
C5U G18A A40U U47C U53C G68A	yeast fitness	≤	0.5
U16G A21U A40C G58C A65C C66G	yeast fitness	=	0.515
A15G C62G C66G	yeast fitness	≤	0.5
C4A C55A A69C A70U	yeast fitness	≤	0.5
U32A A42G C55U	yeast fitness	≤	0.5
U28A C31A A36C A45G G48C	yeast fitness	=	0.619
U13G U28G A57U A65C A69C	yeast fitness	≤	0.5
C24U G56A	yeast fitness	=	0.998
G56A	yeast fitness	=	1.03
G9C G25A	yeast fitness	=	0.721
U8C U16A A21U C24G G48C	yeast fitness	≤	0.5
A21U C22U U32A G52C	yeast fitness	≤	0.5
G25C C62G	yeast fitness	=	0.877
A15U C27U A36G G56C	yeast fitness	≤	0.5
G25C G50A	yeast fitness	=	1
C46G C55G	yeast fitness	=	0.722
C4G C27G C34G G51A	yeast fitness	≤	0.5
A14G C66U	yeast fitness	=	0.891
C5A A15G A36G	yeast fitness	≤	0.5
C22A C31U A43U	yeast fitness	=	0.623
U19G A20U U26A G38C A45G C46G G50A G56C	yeast fitness	≤	0.5
C11A C49A C62A	yeast fitness	≤	0.5
C11A G25A A43G A65C	yeast fitness	≤	0.5
U26A C27U A65G	yeast fitness	=	1
C11A A15U	yeast fitness	=	0.658
C11U C27U C31A U35C G48U C55G C66U A70C	yeast fitness	≤	0.5
